# assayed target: G-protein coupled receptor 3 (Homo sapiens)
# measurement protocol: Agonist activity at human GPR3 expressed in HEK293 cells assessed as increase in cAMP accumulation incubated for 30 mins by HTRF assay
endpoint: EC50 (µM)

Guide cases for EC50, answers given:
>>> test_value("C[n+]1cc2ccccc2c2ccccc21")
382
>>> test_value("c1ccc2c(c1)sc1ccccc12 [DIBENZOTHIOPHENE]")
81

1. CC(C)(C)[S+]([O-])N=C1c2ccccc2-c2ccccc21 (stereo not given)
2. C[N+]1(C)c2ccccc2-c2ccccc21
Identify the entry with the smaller EC50: 1 or 2 . Reply with the label of the item you choose.
1
(1: 66 µM, 2: 114 µM)

* * *

# assayed target: G-protein coupled receptor 3 (Homo sapiens, UniProt P46089)
# Sequence (P46089 whole entry): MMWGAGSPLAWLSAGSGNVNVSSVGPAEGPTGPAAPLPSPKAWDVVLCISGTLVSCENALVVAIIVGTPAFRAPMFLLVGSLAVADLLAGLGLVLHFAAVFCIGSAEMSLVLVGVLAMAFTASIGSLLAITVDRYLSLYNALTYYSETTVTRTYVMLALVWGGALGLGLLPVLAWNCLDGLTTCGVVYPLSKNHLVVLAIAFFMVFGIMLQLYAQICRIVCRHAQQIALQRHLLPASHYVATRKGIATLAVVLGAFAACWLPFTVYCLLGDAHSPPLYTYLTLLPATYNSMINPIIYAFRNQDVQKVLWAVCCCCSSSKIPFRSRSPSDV
# measurement protocol: Agonist activity at human GPR3 expressed in HEK293 cells assessed as increase in cAMP accumulation incubated for 30 mins by HTRF assay
endpoint: EC50 (µM)

Guide cases for EC50, answers given:
>>> test_value("Cc1nc2ccccc2c2ccccc12")
86
>>> test_value("CN(C)C1c2ccccc2-c2ccccc21")
21
>>> test_value("O=[N+]([O-])c1ccc2c(c1)[I+]c1ccccc1-2")
1.34

I. O=c1[nH]c2ccccc2c2ccccc12
II. FC1(F)Oc2cc3c(cc2O1)-c1ccccc1[I+]3
III. Fc1ccc2c(c1)oc1ccccc12
IV. c1ccc2c(c1)cnc1ccccc12
rank_up(items): orders items by reported EC50 in ascending numerical order. List the labels according to the requested ordering.
II, I, IV, III
